molecular target: V. destructor NTL receptor (VdNTL-R) (Varroa destructor); test: Aequorin calcium-mobilization reporter assay, VdNTL-R transiently expressed in CHO-K1 cells with Ga16; format: cell-based; settings: ligand 1 μM; relative luminescence normalized by highest activity of endogenous ligand VdNTL1; 3 biological replications
Sequence (A0A141CIT8 1-461): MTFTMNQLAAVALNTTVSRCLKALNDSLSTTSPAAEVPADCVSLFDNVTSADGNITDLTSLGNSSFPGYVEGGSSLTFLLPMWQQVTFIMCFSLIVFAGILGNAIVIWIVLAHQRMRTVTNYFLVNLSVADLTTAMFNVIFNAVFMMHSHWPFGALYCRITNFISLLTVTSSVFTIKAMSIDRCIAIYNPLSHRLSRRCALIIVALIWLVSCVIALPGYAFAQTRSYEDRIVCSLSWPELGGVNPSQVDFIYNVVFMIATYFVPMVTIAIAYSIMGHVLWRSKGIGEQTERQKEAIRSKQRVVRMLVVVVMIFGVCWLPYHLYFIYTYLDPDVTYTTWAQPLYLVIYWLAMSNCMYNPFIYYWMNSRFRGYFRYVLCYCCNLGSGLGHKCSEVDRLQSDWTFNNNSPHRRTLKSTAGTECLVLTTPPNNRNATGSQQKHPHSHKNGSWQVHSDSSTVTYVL
No end group written: not given here.
The following substances are shown together with reported Agonistic activity, VdNTL-R 1μM values.
Give just the number in RLU; leave the unit off.

Example entries begin here.
Substance	Agonistic activity, VdNTL-R 1μM / RLU
HRNLFQVDDPFFATRa [DmNTL4, NTL peptide of D. melanogaster]	30.4
SIGGPAPGFVGAR-NH2 [VdNTL1]	100
GSFFGMR-NH2 [VdTRP3, GSFFGMRa]	24.8
DLRQENDPFWGNR-NH2 [BmNTL3, NTL peptide of B. mori]	0.1
ALMGFQGVR-NH2 [AmTRP1]	37.1

Request: Record request: Agonistic activity, VdNTL-R 1μM value, item ASGQEEFGPFWANRa [TcNTL1, NTL peptide of T. castaneum]
Response: 1.5

Request: Record request: Agonistic activity, VdNTL-R 1μM value, item TEENPFWANR-NH2 [BmNTL5, NTL peptide of B. mori]
Response: 0.4

Request: Record request: Agonistic activity, VdNTL-R 1μM value, item LQLRDLYNADDPFVPNRa [DmNTL5, NTL peptide of D. melanogaster]
Response: 0.1

###

target: A. mellifera TRP receptor (AmTRP-R) (Apis mellifera, UniProt A0ACM8RFV8); assay: Aequorin calcium-mobilization reporter assay, AmTRP-R transiently expressed in CHO-K1 cells with Ga16; assay type: cell-based; conditions: ligand 1 μM; relative luminescence normalized by highest activity of endogenous ligand AmTRP1; 3 biological replications
Sequence (A0ACM8RFV8 1-421): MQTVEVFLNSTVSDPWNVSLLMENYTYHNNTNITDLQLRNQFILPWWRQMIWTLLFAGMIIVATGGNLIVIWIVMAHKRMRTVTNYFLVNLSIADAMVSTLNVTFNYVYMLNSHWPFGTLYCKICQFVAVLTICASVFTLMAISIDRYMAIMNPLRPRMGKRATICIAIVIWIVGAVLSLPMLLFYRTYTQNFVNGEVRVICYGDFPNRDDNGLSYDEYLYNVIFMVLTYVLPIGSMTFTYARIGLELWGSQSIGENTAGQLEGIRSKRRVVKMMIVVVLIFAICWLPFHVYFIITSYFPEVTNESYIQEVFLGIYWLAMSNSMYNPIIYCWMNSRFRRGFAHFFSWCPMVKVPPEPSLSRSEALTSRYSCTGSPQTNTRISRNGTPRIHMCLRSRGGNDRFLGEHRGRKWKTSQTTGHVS
No end group written: not given here.
# binarize Agonistic activity, AmTRP-R 1μM: threshold -0.2 RLU inclusive, high side yes, low side no

Use these answered entries as a reference point.
Substance	Assigned Category
SIGGPAPGFVGAR-NH2 [VdNTL1]	yes
DLRQENDPFWGNR-NH2 [BmNTL3, NTL peptide of B. mori]	no
HRNLFQVDDPFFATRa [DmNTL4, NTL peptide of D. melanogaster]	yes
LQLRDLYNADDPFVPNRa [DmNTL5, NTL peptide of D. melanogaster]	no
ALMGFQGVR-NH2 [AmTRP1]	yes

Now let's try a different one.
Request: Quick check, Agonistic activity, AmTRP-R 1μM >= -0.2 RLU? GSFFGMR-NH2 [VdTRP3, GSFFGMRa]
Response: yes

###

target: A. mellifera TRP receptor (AmTRP-R) (Apis mellifera); assay: Aequorin calcium-mobilization reporter assay, AmTRP-R transiently expressed in CHO-K1 cells with Ga16; assay type: cell-based; settings: CHO-K1 cells, Ga16 + aequorin luminescence; 10-fold serial dilutions; logistic fitting of dose-response curves
No end group written: not given here.
The following substances are shown together with reported pEC50 values.
// returns pEC50 (minus log10 of molar concentration), number only

Substance	Tested System	pEC50
GSFFGMR-NH2 [VdTRP3, GSFFGMRa]	A. mellifera TRP receptor (AmTRP-R) (Apis mellifera)	7.89
AFHAMR-NH2 [VdTRP1]	A. mellifera TRP receptor (AmTRP-R) (Apis mellifera)	7.02
NPRWEFRGKFVGVR-NH2 [AmTRP7]	A. mellifera TRP receptor (AmTRP-R) (Apis mellifera)	9.10
SIGGPAPGFVGAR-NH2 [VdNTL1]	A. mellifera TRP receptor (AmTRP-R) (Apis mellifera)	8.35
ALMGFQGVR-NH2 [AmTRP1]	A. mellifera TRP receptor (AmTRP-R) (Apis mellifera)	9.52
AAPFHAMR-NH2 [VdTRP2]	A. mellifera TRP receptor (AmTRP-R) (Apis mellifera)	7.02

Request: Record request: pEC50 value, item GGVPGFVGAR-NH2 [VdNTL2]
Response: 9.15

###

Target: V. destructor TRP receptor (VdTRP-R) (Varroa destructor)
Sequence (A0A141CIT9 1-437): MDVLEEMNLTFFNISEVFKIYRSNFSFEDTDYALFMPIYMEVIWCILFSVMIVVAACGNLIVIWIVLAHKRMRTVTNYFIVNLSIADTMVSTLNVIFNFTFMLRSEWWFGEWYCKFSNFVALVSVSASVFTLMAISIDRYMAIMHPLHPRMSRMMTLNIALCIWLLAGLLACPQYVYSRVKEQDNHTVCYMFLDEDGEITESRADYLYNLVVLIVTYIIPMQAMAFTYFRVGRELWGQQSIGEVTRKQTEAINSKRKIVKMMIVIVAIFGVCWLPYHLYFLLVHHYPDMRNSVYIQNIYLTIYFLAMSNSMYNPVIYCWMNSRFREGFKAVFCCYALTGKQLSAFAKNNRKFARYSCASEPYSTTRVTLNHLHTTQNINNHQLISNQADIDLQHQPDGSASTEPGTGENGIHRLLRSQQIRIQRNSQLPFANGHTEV
Assay: Aequorin calcium-mobilization reporter assay, VdTRP-R transiently expressed in CHO-K1 cells with Ga16
Type: cell-based
Details: CHO-K1 cells, Ga16 + aequorin luminescence; 10-fold serial dilutions; logistic fitting of dose-response curves
No end group written: not given here.
Property Measured: EC50
Give your result as the value with the unit written after it.

Example entries begin here.
Substance	Tested System	Result
APMGFQGMR-NH2 [AmTRP2,3]	V. destructor TRP receptor (VdTRP-R) (Varroa destructor)	250 nM
NPRWEFRGKFVGVR-NH2 [AmTRP7]	V. destructor TRP receptor (VdTRP-R) (Varroa destructor)	93 nM
AAPFHAMR-NH2 [VdTRP2]	V. destructor TRP receptor (VdTRP-R) (Varroa destructor)	71 nM

Request: Record request: EC50 value, item AFHAMR-NH2 [VdTRP1]
Response: 55 nM

Request: Record request: EC50 value, item GSFFGMR-NH2 [VdTRP3, GSFFGMRa]
Response: 4.3 nM
